Where these numbers come from: the supplement of paper PMC10567573

B1: PI4K2A (parent)
chain: FVKDPQGRIIAVFKPKNEEPYGHL

- Variants of: B1
- measurement_description: protein stability index of a GFP-peptide fusion (GPS, HEK-293T) (PSI 1-6); higher = more stable;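 further: lentivirally expressed fusions sorted by FACS into six bins by GFP to DsRed ratio, PSI derived from sequencing read proportions per bin multiplied by bin number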
- stated_conditions: c terminus: a fixed tail appended
Measured protein stability index of individual entries
observable: protein stability index

>>> df
    variant_identifier  result_value
 0                 R8S          3.87
 1                 D4A          2.86
 2                 G7A          2.29
 3                I10F          2.79
 4                F13T          1.94
 5                H23T          1.81
 6                 V2A          2.07
 7                Y21D          1.85
 8                K16D          2.22
 9                E18N          1.48
10                K14E          2.09
11                 F1G          3.09
12                N17M           1.9
13                L24W          1.74
14                K16I          2.31
15                 K3L          1.85
16                 F1I          2.18
17                P20W          2.05
18                K16E           2.3
19                P15M           2.1
20                G22I          1.74
21                K14W          1.78
